- Measurement Description: NCI Yeast Anticancer Drug Screen. Data for the bub3 strain (AID 167)
- Particulars: S. cerevisiae bub3 mutant strain, at 50.0 µM, hits give high values
This is part of a sample that, as a whole, favours compounds with a hit. Of some 79,000 tested, about 15% had one in any assay.
Property: growth inhibition (%)
# number only, unit % dropped from output

Which growth inhibition value belongs to C=C(CO)CC(CC(=C)CCS(=O)(=O)c1ccccc1)S(=O)(=O)c1ccccc1 (stereo unspecified) ?
7.35

Queued: CC(=O)OC12C3C4C1C1C2C3C41OC(C)=O (stereo unspecified)
-16.4

// query: CCC(/C=C/c1ccccc1)=N\NC(=O)c1ccc(C)cc1
15.5

Likewise for O=C(Nc1cccc2ccccc12)Oc1ccc(Br)cc1Br ?
54.1

What do you have for NCS(=O)(=O)O ?
-24.2

// repeat for O=C1CCCC1CN1CCCCC1 (stereo unspecified) and report
22.1

Proceed to NCC1CCC(C(=O)O)CC1 (stereo unspecified)
-24.9

Then this compound: CCOc1ccccc1N=Nc1c(C)nn(C(=S)SC)c1OCC
14

Try this compound too: C=C(Br)C[N+](CC)(CC)CC
-8.85

Next up: CCC(=O)N(C)c1ccccc1
-0.35

Thanks! And O=C1NC(=O)C(c2ccc(O)cc2)N1 (stereo unspecified) ?
0.2

// repeat for Fc1ccc(F)c(C(Nc2nncs2)Nc2nncs2)c1 and report
8.45

Now give it for O=c1ccn(/C=C\c2nc3ccccc3[nH]c2=O)c(=S)[nH]1 too.
-17.5

Note, next up: CC(=O)Nc1cc(C)ccn1
-2.95

And for O=C1Nc2cccc3cc(NCC(O)CCCl)cc1c23 (stereo unspecified) ?
14.6

And the next one, COC(=O)C1Cc2cc3c(cc2C1=O)CCC3 (stereo unspecified) ?
20.4

Next up: C=CCCCC(C#N)c1ccc2c(c1)OCO2 (stereo unspecified)
-40.6

Lookup OC(c1ccccc1)(C(F)(F)F)C(F)(F)F
9.9

Same lookup for CCO[Si](C)(CCC#N)OCC , please.
-31.6

// repeat for Cc1cc(S(=O)(=O)Nc2nnc3cc(C(F)(F)F)cc(C)n23)c(S)cc1Cl and report
-19.9

And CC/C=C(C)/C=N\NC(=O)c1ccc[n+](C)c1 ?
-3.9

Also, COc1ccc(/C(=C/n2ccnc2)C(O)c2ccc(OC)c(OC)c2)cc1OC (stereo unspecified) please.
-2.8

Try CSC(=Nc1nnc(-c2ccc([N+](=O)[O-])cc2)s1)SC next.
-5.5

Please do the same for O=C(O)C(Cc1cccs1)(Cc1cccs1)C(=O)O as well.
-9.75

Another: CCOC(=O)C(O)Cc1cnc2ccccc2n1 (stereo unspecified)
-11.1

What about O=c1c(C(c2ccc(Cl)cc2)c2c(O)c3ccccc3n(-c3ccccc3)c2=O)c(O)c2ccccc2n1-c1ccccc1 ?
-0.8

* * *

Assignment: determine reported growth inhibition for the given compounds.
- Measurement Description: NCI Yeast Anticancer Drug Screen. Data for the bub3 strain (AID 167)
- Particulars: S. cerevisiae bub3 mutant strain, at 50.0 µM, hits give high values
This is part of a sample that, as a whole, favours compounds with a hit. Of some 79,000 tested, about 15% had one in any assay.
All answers are understood in %, so give the number only.

Request the reported growth inhibition associated with CCOC(=O)NC(Nc1cccc(C(F)(F)F)c1)(C(F)(F)F)C(F)(F)F
-15.6

// same read-out, input: Cc1ccnc(NCc2ccccn2)c1
1.3

Now the compound CC(=O)OC1C=C(C=O)C(O)(C=O)C2(C)CCCC(C)(C)C12 (stereo unspecified)
8.65

Input CCOc1ccccc1NC(=O)C1CCCCC1C(=O)O (stereo unspecified)
12.7

# iterate: COC(=O)C[C@@]1(C(=O)OC)[C@@H](C(=O)OC)C(C(=O)OC)=NN1C
18.1

What about this compound? Cc1cccc(NC(=O)Oc2ccc(Cl)cc2C(=O)c2ccccc2)c1
34.4
